biological target: MAP3K7 (Homo sapiens); experiment: biochemical; design: species or system HEK293/K-562/placenta mixed human extract; Kinobeads chemoproteomic competition binding, quantified by TMT LC-MS/MS, dose response up to 20 uM
Sequence (O43318 whole entry): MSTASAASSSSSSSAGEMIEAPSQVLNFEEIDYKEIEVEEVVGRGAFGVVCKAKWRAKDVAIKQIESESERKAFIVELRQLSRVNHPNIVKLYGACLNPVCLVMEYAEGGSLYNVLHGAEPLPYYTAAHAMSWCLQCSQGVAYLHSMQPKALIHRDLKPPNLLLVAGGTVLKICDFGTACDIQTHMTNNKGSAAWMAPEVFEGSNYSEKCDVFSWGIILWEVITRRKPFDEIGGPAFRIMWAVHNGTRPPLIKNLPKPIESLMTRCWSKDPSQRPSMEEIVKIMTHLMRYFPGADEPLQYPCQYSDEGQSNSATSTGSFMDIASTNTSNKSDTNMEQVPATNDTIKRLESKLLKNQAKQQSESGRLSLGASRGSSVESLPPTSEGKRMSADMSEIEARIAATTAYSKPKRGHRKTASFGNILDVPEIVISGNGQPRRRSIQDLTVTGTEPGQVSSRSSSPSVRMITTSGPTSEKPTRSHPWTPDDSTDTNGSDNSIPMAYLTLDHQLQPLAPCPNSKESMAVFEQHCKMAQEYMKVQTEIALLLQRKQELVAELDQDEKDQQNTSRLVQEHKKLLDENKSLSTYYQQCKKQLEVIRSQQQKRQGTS
pIC50: −log10 of the molar value.
OUTCOME MEASURE: pIC50

In: Reported pIC50, compound COc1nc(N[C@H]2CC[C@H](NS(=O)(=O)CC(C)C)CC2)nc2[nH]nc(N3CCOC[C@H]3C)c12 : ____
Out: ≤ 4.70

* * *

biological target: MARK1 (Homo sapiens, UniProt Q9P0L2); assay: biochemical; set-up: species or system HEK293/K-562/placenta mixed human extract; Kinobeads chemoproteomic competition binding, quantified by TMT LC-MS/MS, dose response up to 20 uM
Sequence (Q9P0L2 whole entry): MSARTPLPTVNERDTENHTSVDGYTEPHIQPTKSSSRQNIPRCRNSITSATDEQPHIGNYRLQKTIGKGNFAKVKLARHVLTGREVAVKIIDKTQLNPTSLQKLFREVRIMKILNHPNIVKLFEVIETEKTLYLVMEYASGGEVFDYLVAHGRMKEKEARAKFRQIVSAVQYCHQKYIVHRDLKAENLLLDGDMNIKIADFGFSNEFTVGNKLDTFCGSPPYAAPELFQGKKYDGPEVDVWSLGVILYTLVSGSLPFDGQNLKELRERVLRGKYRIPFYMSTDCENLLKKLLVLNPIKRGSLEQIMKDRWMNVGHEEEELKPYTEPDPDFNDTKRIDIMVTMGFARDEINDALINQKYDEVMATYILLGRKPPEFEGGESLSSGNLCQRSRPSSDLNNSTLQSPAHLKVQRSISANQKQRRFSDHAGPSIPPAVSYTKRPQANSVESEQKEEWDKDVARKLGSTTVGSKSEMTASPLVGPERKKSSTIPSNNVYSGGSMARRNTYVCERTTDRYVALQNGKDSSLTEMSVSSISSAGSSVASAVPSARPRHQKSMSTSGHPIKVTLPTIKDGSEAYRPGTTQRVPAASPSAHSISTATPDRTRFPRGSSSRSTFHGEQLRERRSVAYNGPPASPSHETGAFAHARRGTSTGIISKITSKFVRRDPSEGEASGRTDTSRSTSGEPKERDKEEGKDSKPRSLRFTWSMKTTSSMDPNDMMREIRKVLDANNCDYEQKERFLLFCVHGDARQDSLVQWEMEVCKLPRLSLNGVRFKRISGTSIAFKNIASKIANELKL
OUTCOME MEASURE: IC50

In: Reported IC50, molecule COc1ccccc1-c1n[nH]c2nc(N[C@H]3CC[C@H](NS(=O)(=O)CCC(F)(F)F)CC3)nc(OC)c12 : ____
Out: ≥ 20 µM
